Recorded values, source patent US10550105B2.

Target: PARP7 (Homo sapiens (Human))
Experiment: Enzymatic assay for inhibition of PARP7: TR-FRET displacement of biotinylated Probe A from the TIPARP active site
Conditions: Table A-1
Consider the following compounds and their measured IC50 readings.

compound	readout.type	result
N#Cc1cnc(N2CCN(C(=O)c3cccc(OC[C@@H]4c5ccccc5CN4c4cn[nH]c(=O)c4C(F)(F)F)c3)CC2)cn1	IC50	< 100 nM

Query: GET /values?readout=IC50&item= `C[C@@H](COCCC(=O)N1CCN(c2ncc(Cl)cn2)CC1)Oc1cn[nH]c(=O)c1Br`
Reply: < 100 nM

---

Target: PARP7 (Homo sapiens (Human), UniProt Q7Z3E1)
Sequence (Q7Z3E1 whole entry): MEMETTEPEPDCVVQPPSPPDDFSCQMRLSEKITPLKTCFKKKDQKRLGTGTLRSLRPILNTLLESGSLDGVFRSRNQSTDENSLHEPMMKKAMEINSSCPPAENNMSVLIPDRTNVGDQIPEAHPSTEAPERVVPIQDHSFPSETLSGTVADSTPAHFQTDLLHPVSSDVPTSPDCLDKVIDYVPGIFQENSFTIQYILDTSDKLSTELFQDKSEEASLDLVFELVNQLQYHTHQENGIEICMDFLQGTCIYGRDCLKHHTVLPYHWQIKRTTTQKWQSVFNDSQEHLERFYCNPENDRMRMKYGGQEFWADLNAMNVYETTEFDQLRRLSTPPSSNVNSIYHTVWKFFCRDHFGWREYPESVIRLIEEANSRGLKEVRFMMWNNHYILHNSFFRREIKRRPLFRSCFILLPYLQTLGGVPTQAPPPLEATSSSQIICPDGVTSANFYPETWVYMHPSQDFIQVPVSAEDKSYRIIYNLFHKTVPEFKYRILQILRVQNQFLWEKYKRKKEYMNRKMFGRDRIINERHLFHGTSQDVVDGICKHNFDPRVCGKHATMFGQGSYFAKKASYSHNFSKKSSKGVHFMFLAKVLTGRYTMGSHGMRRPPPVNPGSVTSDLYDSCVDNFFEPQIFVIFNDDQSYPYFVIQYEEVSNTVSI
Experiment: Enzymatic assay for inhibition of PARP7: TR-FRET displacement of biotinylated Probe A from the TIPARP active site
Settings: Table A-1
pIC50: −log10 of the molar value.
Measured pIC50 accompanies every entry in the list below.

Example cases with answers are listed next.
compound	pIC50
N#Cc1ccc(N2CCN(C(=O)CCO[C@H](CO)COc3cn[nH]c(=O)c3C(F)(F)F)CC2)nc1 (single isomer, unassigned) [Example 573 Isomer D]	> 7.00
O=c1[nH]ncc(N2Cc3ccccc3[C@H]2CO)c1C(F)(F)F	≤ 6.00
N#Cc1cnc(N2CCN(C(=O)CCOC[C@@H]3CCCN3c3cn[nH]c(=O)c3C(F)(F)F)CC2)cn1	> 7.00
COc1cc2c(cn1)CN(c1cn[nH]c(=O)c1C(F)(F)F)C2	> 7.00
Cc1cnc(N2CCN(C(=O)CCOC[C@H](C)Nc3cn[nH]c(=O)c3C(F)(F)F)CC2)nc1	> 7.00
N#Cc1ccc(N2CCN(C(=O)C/C=C\OC[C@@H]3c4ccccc4CN3c3cn[nH]c(=O)c3C(F)(F)F)CC2)nc1 (single isomer, unassigned; isomer a) [Example 79 Isomer A]	> 7.00

Query: Fill blank: measured pIC50 of the compound `COc1cc(F)cc2c1CN(c1cn[nH]c(=O)c1C(F)(F)F)C2` is ____.
Reply: > 7.00

Query: What value of pIC50 has been reported for the following compound? `C[C@@H](COCCC(=O)N1CCN(c2ncc(C(F)(F)F)cn2)CC1)Sc1cn[nH]c(=O)c1Cl`
Reply: > 7.00

---

Biological target: PARP7 (Homo sapiens (Human))
Assay: Enzymatic assay for inhibition of PARP7: TR-FRET displacement of biotinylated Probe A from the TIPARP active site
Settings: Table A-1
pIC50: −log10 of the molar value.
readout.type: pIC50

molecule	study.system	result
C[C@@H](COC[C@@H]1CCCN1c1cn[nH]c(=O)c1C(F)(F)F)C(=O)N1CCN(c2ccc(C#N)cn2)CC1 (single isomer, unassigned) [Example 94 Isomer B]	PARP7 (Homo sapiens (Human))	> 7.00

Query: Dear colleague, I am looking for the recorded pIC50 of the following molecule: `N#Cc1ccc(N2CCN(C(=O)CCNC[C@@H]3CCCN3c3cn[nH]c(=O)c3C(F)(F)F)CC2)nc1`
Reply: > 7.00

Query: Field request: pIC50 | item: `O=c1[nH]ncc(N2Cc3cc(F)c(OCCN4CCOCC4)cc3C2)c1C(F)(F)F`
Reply: > 7.00

Query: State the recorded pIC50 for this entry: O=C(C[C@@H]1CC[C@@H](COc2cn[nH]c(=O)c2C(F)(F)F)O1)N1CCN(c2ncc(C(F)(F)F)cn2)CC1 (single isomer, unassigned) [Example 574 Isomer A]
Reply: 6.00 to 7.00

Query: Requested read-out: pIC50. Entry: N#Cc1ccc(N2CCN(C(=O)c3cccc(NCC4c5ccccc5CN4c4cn[nH]c(=O)c4C(F)(F)F)c3)CC2)nc1 (centres unmarked)
Reply: > 7.00

Query: Please report the recorded pIC50 for O=C(C[C@H]1CC[C@@H](COc2cn[nH]c(=O)c2Cl)O1)N1CCN(c2ncc(Cl)cn2)CC1 (single isomer, unassigned) [Example 566 Isomer C] .
Reply: 6.00 to 7.00

Query: Item N#Cc1ccc(N2CCN(C(=O)[C@H]3CC[C@@H](OC[C@@H]4CCCN4c4cn[nH]c(=O)c4C(F)(F)F)CC3)CC2)nc1 (single isomer, unassigned; isomer b) [Example 82 Isomer B] has what recorded pIC50?
Reply: 6.00 to 7.00

Query: // pIC50 lookup, key: `CN(CC[C@@H]1CCCN1c1cn[nH]c(=O)c1C(F)(F)F)CC(=O)N1CCN(c2ccc(C#N)cn2)CC1`
Reply: 6.00 to 7.00

Query: Which value of pIC50 has been reported for C[C@@H](COCCC(=O)N1CCN(c2ncc(C(F)(F)F)cn2)CC1)Oc1cn[nH]c(=O)c1Cl (single isomer, unassigned) [Example 578 Isomer A] in the records?
Reply: > 7.00

Query: For the molecule `CN(CCOCCCN1CCN(c2ccc(C#N)cn2)CC1)c1cn[nH]c(=O)c1C(F)(F)F` , what pIC50 is on record?
Reply: 6.00 to 7.00

Query: Which measured pIC50 value corresponds to `O=c1[nH]ncc(N2Cc3cccc(OCc4ccncc4)c3C2)c1C(F)(F)F` ?
Reply: > 7.00

Query: For O=c1[nH]ncc(N2Cc3cc(F)c(OC4CCNC4)cc3C2)c1C(F)(F)F (centres unmarked) , what is its reported pIC50?
Reply: > 7.00

Query: Fill blank: measured pIC50 of the molecule `C[C@@H](COCCC(=O)N1CCN(c2ncc(C(F)F)cn2)CC1)Nc1cn[nH]c(=O)c1C(F)(F)F` is ____.
Reply: > 7.00

Query: Record request: pIC50 value, item N#Cc1ccc(N2CCN(C(=O)c3ccnc(OCC4c5ccccc5CN4c4cn[nH]c(=O)c4C(F)(F)F)n3)CC2)nc1 (centres unmarked)
Reply: > 7.00

Query: # lookup: pIC50 of `COC[C@@H](COCCC(=O)N1CCN(c2ncc(C(F)(F)F)s2)CC1)Nc1cn[nH]c(=O)c1C(F)(F)F`
Reply: > 7.00

Query: Return reported pIC50; argument: COC[C@H](CO[C@H](C)CC(=O)N1CCN(c2ccc(C#N)cn2)CC1)Oc1cn[nH]c(=O)c1C(F)(F)F (single isomer, unassigned) [Example 571 Isomer A]
Reply: > 7.00

Query: Item under review: C[C@@H](CC(=O)N1CCN(c2ccc(C#N)cn2)CC1)OC[C@@H]1CCCN1c1cn[nH]c(=O)c1C(F)(F)F [Example 123B] . Reported pIC50?
Reply: > 7.00

---

Molecular target: PARP7 (Homo sapiens (Human), UniProt Q7Z3E1)
Assay: Enzymatic assay for inhibition of PARP7: TR-FRET displacement of biotinylated Probe A from the TIPARP active site
Details: Table A-1
Experimental: 20 nL of a dose response curve of each test compound was spotted in black 384-well polystyrene proxiplates (Perkin Elmer) using a Mosquito (TTP Labtech). […] Reactions were incubated at 25° C. for an additional 30 min, then read on an Envision platereader equipped with a LANCE/DELFIA top mirror (Perkin Elmer) using excitation of 320 nm and emission of 615 nm and 665 nM with a 90 μs delay. […]
Property: IC50; scope: individual compounds

Reference set (6 entries):
compound	result
C[C@H](COCCC(=O)N1CCN(c2ncc(Cl)cn2)CC1)Nc1cn[nH]c(=O)c1C(F)(F)F	100 to 1000 nM
COc1ccc2c(n1)CN(c1cn[nH]c(=O)c1C(F)(F)F)C2	< 100 nM
O=C(CCOC[C@H](CCO)Nc1cn[nH]c(=O)c1C(F)(F)F)N1CCN(c2ncc(C(F)(F)F)cn2)CC1	< 100 nM
N#Cc1ccc(N2CCN(C(=O)CCOC[C@H]3c4ncccc4CN3c3cn[nH]c(=O)c3Cl)CC2)nc1	100 to 1000 nM
CN(CCOc1cccc2c1CN(c1cn[nH]c(=O)c1C(F)(F)F)C2)CCC(=O)N1CCN(c2ccc(C#N)cn2)CC1	< 100 nM
N#Cc1ccc(N2CCN(C(=O)C[C@@H]3CCC[C@@H](COc4cn[nH]c(=O)c4C(F)(F)F)O3)CC2)nc1 (single isomer, unassigned) [Example 583 Isomer A]	< 100 nM

Attention now turns to another entry.
Query: Would you mind telling me what IC50 value was observed for `O=c1[nH]ncc(N2Cc3cccc(F)c3C2)c1Cl` ?
Reply: 100 to 1000 nM

---

Molecular target: UniProt Q7Z3E1
Assay: Enzymatic assay for inhibition of PARP7: TR-FRET displacement of biotinylated Probe A from the TIPARP active site
Assay type: binding
Settings: Table A-1
pIC50: −log10 of the molar value.
Below is a list of entries, each paired with its recorded pIC50 value.

Examples with their reported pIC50 follow.
compound	result
O=C(c1cncc(OC[C@@H]2c3ccccc3CN2c2cn[nH]c(=O)c2C(F)(F)F)c1)N1CCN(c2ccc(Cl)cn2)CC1	> 7.00
O=C(CCOC[C@@H]1c2ccccc2CN1c1cn[nH]c(=O)c1C(F)(F)F)N1CCNCC1	6.00 to 7.00
C[C@H]1CCN(c2cn[nH]c(=O)c2C(F)(F)F)[C@H]1COc1cccc(C(=O)N2CCN(c3ccc(C#N)cn3)CC2)c1	6.00 to 7.00
Cc1ccc2c(n1)CN(c1cn[nH]c(=O)c1C(F)(F)F)C2	> 7.00
N#Cc1ccc(N2CCN(C(=O)[C@H]3CCC[C@H](OC[C@@H]4CCCN4c4cn[nH]c(=O)c4C(F)(F)F)C3)CC2)nc1 (single isomer, unassigned) [Example 57 Isomer A]	6.00 to 7.00

Query: What pIC50 value was documented for this compound, `C[C@@H](COCCC(=O)N1CCN(c2ncc(C#N)s2)CC1)Nc1cn[nH]c(=O)c1C(F)(F)F` ?
Reply: > 7.00

Query: Tell me the measured pIC50 of O=C(COC[C@@H]1CCCN1c1cn[nH]c(=O)c1C(F)(F)F)N[C@H]1CC[C@H](Nc2ccccn2)CC1 (single isomer, unassigned; isomer a) [Example 80 Isomer A] , please.
Reply: 6.00 to 7.00

Query: // returns reported pIC50 for input O=C(C[C@H]1CC[C@@H]([C@@H]2CCCN2c2cn[nH]c(=O)c2C(F)(F)F)O1)N1CCN(c2ccc(Cl)cn2)CC1 [Example 148D]
Reply: > 7.00

Query: I am curious: what pIC50 value has been reported for `Cc1cnc(N2CCN(C(=O)CCOC[C@H](C)Oc3cn[nH]c(=O)c3C(F)(F)F)CC2)nc1` ?
Reply: > 7.00
